assay: Apparent volume of distribution during terminal phase in mouse at 35 mg/kg, po administered as single dose measured at 0.25 to 24 hrs by LC/MS/MS analysis; type: ADME, organism-based; details: in vivo, read-out: Vz/F
property-measured: Vd/F (L/kg)

1) COc1cc2c(Oc3ccc(/C=N/NC(=O)Nc4ccc(F)cc4Br)cc3F)ccnc2cc1OCCCN1CCCCC1    346
2) COc1cc2c(Oc3ccc(NC(=O)N/N=C/c4ccc(F)cc4Cl)cc3F)ccnc2cc1OCCCN1CCCCC1    371

1 = C=CCc1cccc(/C=N/NC(=O)Nc2ccc(Oc3ccnc4cc(OCCCN5CCCCC5)c(OC)cc34)c(F)c2)c1O
2 = COc1cc2c(Oc3ccc(NC(=S)N/N=C/c4ccccc4)cc3F)ccnc2cc1OCCCN1CCCCC1
Task: Lab log: flag the item ( 1 or 2 ) with the smaller Vd/F figure. When you have decided, please share the label of that item.
Result: 1
